# target-under-test: UniProtKB P08909
# Sequence (P08909 33-460 limits assumed): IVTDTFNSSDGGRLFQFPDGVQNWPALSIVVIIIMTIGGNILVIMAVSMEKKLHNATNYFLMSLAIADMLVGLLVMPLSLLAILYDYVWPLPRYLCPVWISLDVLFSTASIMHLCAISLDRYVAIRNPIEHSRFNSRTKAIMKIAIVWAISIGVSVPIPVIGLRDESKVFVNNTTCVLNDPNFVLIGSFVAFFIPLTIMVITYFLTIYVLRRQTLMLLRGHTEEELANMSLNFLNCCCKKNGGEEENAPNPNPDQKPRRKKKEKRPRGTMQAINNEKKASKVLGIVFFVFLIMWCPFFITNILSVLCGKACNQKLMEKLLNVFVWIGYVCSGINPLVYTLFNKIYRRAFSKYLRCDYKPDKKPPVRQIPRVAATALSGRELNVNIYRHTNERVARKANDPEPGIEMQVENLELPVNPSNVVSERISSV
# assay-name: 5HT2C receptor binding assay ([3H]-mesulergine, rat brain mantle membrane)
# test-context: test compound final concentration 10^-5 M
observation-type: inhibition at 10 µM (%)
Answer in %, number only, no unit symbol.

Consider the reported inhibition at 10 µM for these compounds:
structure	numeric-readout
Clc1ccc(-c2nnc(SCCCN3CCN(c4nsc5ccccc45)CC3)o2)cc1	56.5
Fc1ccc2c(C3CCN(CCCSc4nnc(-c5cccc6ccccc56)o4)CC3)noc2c1	60.6
COc1ccc(-c2nnc(SCCCN3CCN(c4nsc5ccccc45)CC3)o2)cc1	98.5

Exercise: Write down inhibition at 10 µM measured for item COc1ccc(-c2nnc(SCCCN3CCC(c4noc5cc(F)ccc45)CC3)o2)cc1
Solution: 82.1

Exercise: Answer with reported inhibition at 10 µM of Fc1ccc2c(C3CCN(CCCSc4nnc(-c5ccc(Cl)cc5)o4)CC3)noc2c1
Solution: 68.1

----------
# target-under-test: 5HT2A receptor (Rattus norvegicus (Rat))
# assay-name: 5HT2A receptor assay ([3H]-Ketanserin, rat brain mantle membrane)
# Type: binding
# test-context: read-out: 5HT2A Inhibition %
Reported values of inhibition at 10 µM for individual entries
Just the number in %, nothing appended.

structure	units-of-measure	inhibition at 10 µM
Fc1ccc(-c2nnc(SCCCN3CCN(c4nsc5ccccc45)CC3)o2)cc1	%	103

Exercise: Note down inhibition at 10 µM recorded for c1ccc2c(N3CCN(CCCSc4nnc(-c5ccncc5)o4)CC3)nsc2c1
Solution: 95.1

Exercise: Please report the measured inhibition at 10 µM for FC(F)(F)c1ccc(-c2nnc(SCCCN3CCN(c4nsc5ccccc45)CC3)o2)cc1
Solution: 98.8

Exercise: Answer with reported inhibition at 10 µM of Fc1ccc(-c2nnc(SCCCN3CCC(c4noc5cc(F)ccc45)CC3)o2)cc1
Solution: 117

Exercise: Specify measured inhibition at 10 µM for Fc1ccc2c(C3CCN(CCCSc4nnc(-c5ccccc5)o4)CC3)noc2c1 .
Solution: 11

Exercise: Assign inhibition at 10 µM to the following record: Fc1ccc2c(C3CCN(CCCSc4nnc(-c5ccncc5)o4)CC3)noc2c1
Solution: 107

Exercise: Output inhibition at 10 µM of c1csc(-c2nnc(SCCCN3CCN(c4nsc5ccccc45)CC3)o2)c1
Solution: 101

Exercise: Find the measured inhibition at 10 µM of c1ccc2c(-c3nnc(SCCCN4CCN(c5nsc6ccccc56)CC4)o3)cccc2c1 and report it.
Solution: 91

Exercise: # return recorded inhibition at 10 µM for entry c1ccc(-c2nnc(SCCCN3CCN(c4nsc5ccccc45)CC3)o2)cc1
Solution: 87.1

Exercise: Return inhibition at 10 µM for the following compound: Fc1ccc2c(C3CCN(CCCSc4nnc(-c5ccc(C(F)(F)F)cc5)o4)CC3)noc2c1
Solution: 101

----------
molecules and their reported inhibition at 10 µM
# target-under-test: D3 receptor (Homo sapiens (Human), UniProt P35462)
# Sequence (P35462 whole entry): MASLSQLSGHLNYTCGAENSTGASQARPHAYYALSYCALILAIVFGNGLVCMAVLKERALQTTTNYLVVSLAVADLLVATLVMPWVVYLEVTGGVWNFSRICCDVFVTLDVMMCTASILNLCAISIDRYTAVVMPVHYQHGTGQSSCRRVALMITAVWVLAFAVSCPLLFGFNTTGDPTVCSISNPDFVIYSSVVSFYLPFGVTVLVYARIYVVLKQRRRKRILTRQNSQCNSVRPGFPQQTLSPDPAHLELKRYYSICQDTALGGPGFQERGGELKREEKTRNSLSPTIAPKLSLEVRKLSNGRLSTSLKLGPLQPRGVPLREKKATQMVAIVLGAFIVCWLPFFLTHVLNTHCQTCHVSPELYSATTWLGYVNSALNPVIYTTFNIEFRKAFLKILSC
# assay-name: D3 receptor binding assay ([3H]-Spiperone, HEK-293 cells)
# test-context: test compound final concentration 10 μmol/L
Reply with the number, then its unit.

Exercise: Quick one: give measured inhibition at 10 µM for COc1ccc(-c2nnc(SCCCN3CCC(c4noc5cc(F)ccc45)CC3)o2)cc1
Solution: 101%

----------
# assay-name: in vivo
# test-context: both sexes, mouse, in vivo; po, single intragastric administration in mice; read-out: LD50
observation-type: LD50 (mg/kg)
Report only the number, with the unit mg/kg understood.

compound	observation-type	numeric-readout
Cc1nc2n(c(=O)c1CCN1CCC(c3noc4cc(F)ccc34)CC1)CCCC2 [risperidone, reference compound]	LD50	82.1

// moving on: another record for LD50
Exercise: Answer with the recorded LD50 for the compound listed here: O=C1Cc2cc(CCN3CCN(c4nsc5ccccc45)CC3)c(Cl)cc2N1
Solution: 2000

----------
Documented pIC50 across a set of compounds
# target-under-test: 5HT1A receptor (Rattus norvegicus (Rat), UniProt P19327)
# Sequence (P19327 whole entry): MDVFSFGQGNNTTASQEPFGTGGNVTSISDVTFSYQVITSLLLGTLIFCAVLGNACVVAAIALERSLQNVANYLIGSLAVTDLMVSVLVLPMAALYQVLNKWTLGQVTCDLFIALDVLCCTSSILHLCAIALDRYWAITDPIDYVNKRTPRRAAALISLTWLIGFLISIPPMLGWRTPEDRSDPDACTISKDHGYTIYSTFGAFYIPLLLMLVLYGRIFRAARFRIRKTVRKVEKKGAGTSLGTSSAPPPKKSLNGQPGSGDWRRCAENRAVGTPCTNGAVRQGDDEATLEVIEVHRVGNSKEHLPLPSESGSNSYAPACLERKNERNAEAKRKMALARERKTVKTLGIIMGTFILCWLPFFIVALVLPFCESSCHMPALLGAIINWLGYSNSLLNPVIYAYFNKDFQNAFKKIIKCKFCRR
To interpret pIC50, take it as minus log10 of a concentration measured in moles per litre.

compound	pIC50
Fc1ccc2c(C3CCN(CCCSc4nnc(-c5cccc6ccccc56)o4)CC3)noc2c1 [Compound 12]	6.76
Clc1ccc(-c2nnc(SCCCN3CCN(c4nsc5ccccc45)CC3)o2)cc1 [Compound 5]	7.57
COc1ccc(-c2nnc(SCCCN3CCC(c4noc5cc(F)ccc45)CC3)o2)cc1 [Compound 4]	7.90
COc1ccc(-c2nnc(SCCCN3CCN(c4nsc5ccccc45)CC3)o2)cc1 [Compound 3]	8.05

Exercise: Please give the documented pIC50 of Fc1ccc2c(C3CCN(CCCSc4nnc(-c5ccc(Cl)cc5)o4)CC3)noc2c1 [Compound 6]
Solution: 7.70

----------
# target-under-test: D2 receptor (Rattus norvegicus (Rat))
# Sequence (P61169 whole entry): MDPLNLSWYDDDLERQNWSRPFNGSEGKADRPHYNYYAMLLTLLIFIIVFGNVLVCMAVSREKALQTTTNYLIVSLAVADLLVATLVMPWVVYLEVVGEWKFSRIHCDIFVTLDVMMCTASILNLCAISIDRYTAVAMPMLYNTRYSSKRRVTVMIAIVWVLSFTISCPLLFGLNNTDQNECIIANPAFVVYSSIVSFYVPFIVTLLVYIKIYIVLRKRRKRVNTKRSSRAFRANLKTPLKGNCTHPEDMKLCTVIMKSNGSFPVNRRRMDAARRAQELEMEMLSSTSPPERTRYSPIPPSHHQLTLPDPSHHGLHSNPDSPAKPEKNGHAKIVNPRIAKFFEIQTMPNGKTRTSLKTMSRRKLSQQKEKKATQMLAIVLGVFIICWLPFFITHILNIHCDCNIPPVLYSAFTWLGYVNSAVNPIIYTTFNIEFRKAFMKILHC
# assay-name: D2 receptor binding assay (3H-Spiperone, rat brain striatum membrane)
# test-context: read-out: D2 Inhibition %
observation-type: inhibition at 10 µM

Here are 3 compounds together with their reported answers.
structure	inhibition at 10 µM
Fc1ccc(-c2nnc(SCCCN3CCN(c4nsc5ccccc45)CC3)o2)cc1	84.8%
COc1ccc(-c2nnc(SCCCN3CCN(c4nsc5ccccc45)CC3)o2)cc1	108%
Fc1ccc(-c2nnc(SCCCN3CCC(c4noc5cc(F)ccc45)CC3)o2)cc1	88.6%

Below: the item to evaluate.
Exercise: Please indicate inhibition at 10 µM recorded for Fc1ccc2c(C3CCN(CCCSc4nnc(-c5ccncc5)o4)CC3)noc2c1
Solution: 45.9%

----------
# target-under-test: 5HT2A receptor (Rattus norvegicus (Rat), UniProt P14842)
# Sequence (P14842 whole entry): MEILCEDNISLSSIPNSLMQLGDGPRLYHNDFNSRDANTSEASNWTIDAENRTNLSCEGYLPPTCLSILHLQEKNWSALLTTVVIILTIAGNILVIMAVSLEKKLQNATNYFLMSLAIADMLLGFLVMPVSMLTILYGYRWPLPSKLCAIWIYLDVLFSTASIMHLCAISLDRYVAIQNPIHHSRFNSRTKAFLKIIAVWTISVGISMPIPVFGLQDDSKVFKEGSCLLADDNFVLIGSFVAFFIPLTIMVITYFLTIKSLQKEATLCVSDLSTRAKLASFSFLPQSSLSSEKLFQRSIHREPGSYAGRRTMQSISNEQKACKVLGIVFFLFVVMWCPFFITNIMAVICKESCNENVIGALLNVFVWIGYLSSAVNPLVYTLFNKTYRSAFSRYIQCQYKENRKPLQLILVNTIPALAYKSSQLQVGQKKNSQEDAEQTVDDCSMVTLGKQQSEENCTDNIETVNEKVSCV
# assay-name: 5HT2A receptor assay ([3H]-Ketanserin, rat brain mantle membrane)
# Type: binding
# test-context: values marked a = IC50
Listed next: entries and their corresponding pIC50.
Remember the convention: pIC50 equals -log10 of concentration in molar.

structure	observation-type	numeric-readout
COc1ccc(-c2nnc(SCCCN3CCC(c4noc5cc(F)ccc45)CC3)o2)cc1	pIC50	9.29
COc1ccc(-c2nnc(SCCCN3CCN(c4nsc5ccccc45)CC3)o2)cc1	pIC50	8.64
Fc1ccc2c(C3CCN(CCCSc4nnc(-c5ccc(Cl)cc5)o4)CC3)noc2c1	pIC50	7.82
Fc1ccc2c(C3CCN(CCCSc4nnc(-c5cccc6ccccc56)o4)CC3)noc2c1	pIC50	6.91

Could you now look at the following molecule, please?
Exercise: Give recorded pIC50. Clc1ccc(-c2nnc(SCCCN3CCN(c4nsc5ccccc45)CC3)o2)cc1
Solution: 7.20

----------
# assay-name: in vivo
# test-context: both sexes, KM, mouse, in vivo, po
observation-type: LD50 (mg/kg)
Please reply with the bare figure in mg/kg and do not write the unit itself.

Exercise: Item O=C1CCc2ccc(OCCCCN3CCN(c4cccc(Cl)c4Cl)CC3)cc2N1 : provide LD50
Solution: 1400

----------
inhibition at 10 µM: recorded values
# target-under-test: 5HT1A receptor (Rattus norvegicus (Rat))
# assay-name: 5HT1A receptor binding assay (3H-8-OH-DPAT, rat brain mantle membrane)
# test-context: test compound final concentration 10^-5 M

Example compounds with recorded inhibition at 10 µM:
compound	target-under-test	inhibition at 10 µM
c1ccc2c(N3CCN(CCCSc4nnc(-c5ccncc5)o4)CC3)nsc2c1 [Compound 15]	5HT1A receptor (Rattus norvegicus (Rat))	114%
FC(F)(F)c1ccc(-c2nnc(SCCCN3CCN(c4nsc5ccccc45)CC3)o2)cc1 [Compound 7]	5HT1A receptor (Rattus norvegicus (Rat))	113%
Fc1ccc2c(C3CCN(CCCSc4nnc(-c5ccccc5)o4)CC3)noc2c1 [Compound 2]	5HT1A receptor (Rattus norvegicus (Rat))	6.1%
c1ccc2c(-c3nnc(SCCCN4CCN(c5nsc6ccccc56)CC4)o3)cccc2c1 [Compound 11]	5HT1A receptor (Rattus norvegicus (Rat))	45.8%
c1csc(-c2nnc(SCCCN3CCN(c4nsc5ccccc45)CC3)o2)c1 [Compound 13]	5HT1A receptor (Rattus norvegicus (Rat))	95.9%
Fc1ccc(-c2nnc(SCCCN3CCC(c4noc5cc(F)ccc45)CC3)o2)cc1 [Compound 10]	5HT1A receptor (Rattus norvegicus (Rat))	56.4%
Fc1ccc(-c2nnc(SCCCN3CCN(c4nsc5ccccc45)CC3)o2)cc1 [Compound 9]	5HT1A receptor (Rattus norvegicus (Rat))	107%
Fc1ccc2c(C3CCN(CCCSc4nnc(-c5ccc(C(F)(F)F)cc5)o4)CC3)noc2c1 [Compound 8]	5HT1A receptor (Rattus norvegicus (Rat))	20.8%
Fc1ccc2c(C3CCN(CCCSc4nnc(-c5ccncc5)o4)CC3)noc2c1 [Compound 16]	5HT1A receptor (Rattus norvegicus (Rat))	86.7%

Exercise: Specify inhibition at 10 µM for c1ccc(-c2nnc(SCCCN3CCN(c4nsc5ccccc45)CC3)o2)cc1 [Compound 1] , system 5HT1A receptor (Rattus norvegicus (Rat)).
Solution: 17.9%

----------
# target-under-test: D3 receptor (Homo sapiens (Human))
# assay-name: D3 receptor binding assay ([3H]-Spiperone, HEK-293 cells)
# test-context: test compound final concentration 10 μmol/L
observation-type: inhibition at 10 µM (%)
Please reply with the bare figure in % and do not write the unit itself.

compound	target-under-test	units-of-measure	numeric-readout
Fc1ccc2c(C3CCN(CCCSc4nnc(-c5cccc6ccccc56)o4)CC3)noc2c1 [Compound 12]	D3 receptor (Homo sapiens (Human))	%	100
Clc1ccc(-c2nnc(SCCCN3CCN(c4nsc5ccccc45)CC3)o2)cc1 [Compound 5]	D3 receptor (Homo sapiens (Human))	%	98.7
Fc1ccc2c(C3CCN(CCCSc4nnc(-c5ccc(Cl)cc5)o4)CC3)noc2c1 [Compound 6]	D3 receptor (Homo sapiens (Human))	%	101

Please turn your attention to the following entry.
Exercise: Tell us which inhibition at 10 µM value is on record for COc1ccc(-c2nnc(SCCCN3CCN(c4nsc5ccccc45)CC3)o2)cc1 [Compound 3]
Solution: 99.5

Values compiled from patent US8993575B2.
